- System: T47D
- test summary: NCI tumour cell line growth inhibition, 48 h
Calls of active or inactive are those of the source. Cut-off read from the data, not from the text of the source: active = GI50 up to about 1.1 µM and inactive = higher.
Your reply should match one of these outcome classes. t = active, f = inactive

Prompt: Outcome? CN(C)CC1(Cc2ccccc2)CCC(Cc2ccccc2)C1=O (stereo unspecified)
Completion: f

Prompt: Outcome logged for CCOC(=O)C1=C(c2ccccc2)C12N(Cc1ccccc1)C(=O)C2(c1ccccc1)c1ccccc1 (stereo unspecified) in this assay:
Completion: f

Prompt: Recorded test call requested for CCOC(=O)/C=C\C(C#N)(C#N)/N=C/c1ccsc1
Completion: f

Prompt: Hi team, can someone confirm the assay call for CC(=O)OCC1OC(n2c(-c3ccccc3)c(/N=N/c3ccccc3)c(C)c(C#N)c2=S)C(OC(C)=O)C(OC(C)=O)C1OC(C)=O (stereo unspecified) ?
Completion: f

Prompt: Field: outcome | Entry: CCOC(=O)c1c(N2CCOCC2)[nH]c(=O)c(C(c2c(Cl)cccc2Cl)c2c(O)c(C(=O)OCC)c(N3CCOCC3)[nH]c2=O)c1O
Completion: f

Prompt: Field: outcome | Entry: CC(=O)N1CC(C)(C)c2c(C)c(O)c(C)c(C)c21
Completion: f

Prompt: # lookup: test call for O=C(/C=C/c1ccccc1)CCC1C(=O)NC(=S)NC1=O
Completion: f

Prompt: Record lookup: outcome of this test for COc1cccc(-c2nc(O)c3ccccc3n2)c1 ?
Completion: f

Prompt: What is the recorded call for this molecule in the test? CC1CC(C)(C)CC(OCCN2CCCCC2)(c2ccccc2)C1 (stereo unspecified)
Completion: f

Prompt: Record request — test call for BrCc1ccc(CBr)c2c1-c1c(CBr)ccc3ccc(CBr)c-2c13
Completion: f

Prompt: Would you mind telling me which call this test gave O=C1NC(c2c(Cl)cccc2Cl)Nc2ccccc21 (stereo unspecified) ?
Completion: f

Prompt: GET /call?item= CN1CCN([C@H]2C[C@H]3[C@@H]4CC=C5C[C@@H](O)CC[C@]5(C)[C@H]4CC[C@]3(C)[C@H]2O)CC1 returns the recorded outcome of this test.
Completion: f

Prompt: I'd appreciate the recorded outcome for CC(C)(C)OC(=O)CCC1NC(=O)[C@@H]2Cc3c([nH]c4ccccc34)C(c3ccccc3)N2C1=O (stereo partly specified) from this test.
Completion: f

Prompt: Hey, what did the test say about COc1ccc2nc(-c3ccc(O)cc3)sc2c1 ?
Completion: f

Prompt: What was the test verdict on CSC(SC)=C1C(=O)NN=C1C ?
Completion: f

Prompt: Hi, sorry to bother you, what did the test record for CC1C2CC(CC(=O)N2)C1(C)C (stereo unspecified) ?
Completion: f

Prompt: Please state the recorded outcome for this molecule: CCCC(=O)Nc1cc(C(=O)N2C[C@H]3C[C@@]34C2=CC(=O)c2[nH]cc(C)c24)n(COC)c1
Completion: t

Prompt: So what was the verdict on CN1CCc2c(sc3nc(Nc4ccccc4)n(N)c(=O)c23)C1 in this test?
Completion: f

Prompt: Could you kindly confirm the outcome this assay logged for COc1ccc(N2C(=O)C3ON(C(C(N)=O)c4ccccc4)C(c4cc5ccccc5c5ccccc45)C3C2=O)cc1 (stereo unspecified) ?
Completion: f

Prompt: # outcome recorded in this test, key = COc1ccc2nc3ccc(OC)cc3c(SCCCl)c2c1
Completion: f

Prompt: Hi, sorry to bother you, what did the test record for CC[C@]1(Cc2ccc(OC)c(OC)c2)C=[N+]([O-])O[C@H](OCc2ccccc2)[C@@H]1OC(C)=O ?
Completion: f
